B1: Pistol ribozyme (parent)
chain: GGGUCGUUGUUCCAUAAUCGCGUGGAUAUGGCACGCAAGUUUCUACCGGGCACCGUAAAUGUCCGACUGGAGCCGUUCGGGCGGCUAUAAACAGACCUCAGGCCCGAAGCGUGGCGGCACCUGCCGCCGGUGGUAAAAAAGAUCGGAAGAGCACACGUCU

# Variants of: B1
# Assay Remarks: aptazyme ON/OFF ratio, guanine; higher = stronger switching; co-transcriptional cleavage with and without guanine
Give aptazyme ON/OFF ratio for every item shown.
Give bare numbers.

Solved cases below.
# Var, Observed Value
data = [
    ("U8A G9C U10A U11C C13G", 1.03),
    ("U7C G9A U10G U11C C12U C13U", 1.21),
    ("U8G U10A C12G C13U", 1.28),
    ("U7A G9C U10C U11C", 0.989),
    ("U7C G9U U10C U11G C13U", 1.23),
    ("U7A U10A U11G C12U", 1.15),
]

Could you tell me aptazyme ON/OFF ratio for each of these variants? They are listed below.
1. U7G U8G G9A U10A U11C C12U C13U
2. U7G U8G G9C U10A U11A C13A
3. U7A U10A U11A C12G C13A
4. U7C U8G G9U U10C U11C C12U C13A
5. U7G U8A G9U U10A U11C C13G

Output line:
1. 1.15
2. 1.06
3. 1.07
4. 1.05
5. 1.02
